growth reference
- System: DU-145 prostate
- Assay remarks: NCI-60 one-dose screen, 48 h (100 = growth as untreated, 0 = no growth, -100 = all killed)
- Test parameters: 10 µM unless noted
This is part of a sample that, as a whole, favours compounds with a hit. Of some 83,000 tested, about 20% had one in any assay.

{"Compound": "CC/C(=C/c1cc(OC)ccc1O)c1ccc2cc(OC)ccc2[o+]1", "growth [%]": 68.6}
{"Compound": "COc1ccccc1-n1cc(C#N)c(N)c1C(=O)c1ccc(C)cc1", "growth [%]": 99.2}
{"Compound": "CCOC(=O)C1=NNC(c2ccc(Cl)cc2)C1C(=O)N1C(=S)NC(=O)C1CC(C)C (stereo not given)", "growth [%]": 107}
{"Compound": "CCO/C=N/C1=C(C#N)C(c2ccc(Cl)cc2)c2sc3c(CC)cccc3c2O1 (stereo not given)", "growth [%]": 13.6}
{"Compound": "Cn1ccnc1C(=O)/C=C/C=C/c1ccc(C(=O)Nc2ccc(F)cc2)cc1", "growth [%]": 18.8}
{"Compound": "N/C(=N\\C(N)=N\\c1nc2ccccc2s1)c1ccncc1Cl", "growth [%]": 45.7}
{"Compound": "CCOC(=O)c1c(N)c(C#N)cn1-c1cc(OC)c(OC)c(OC)c1", "growth [%]": 110}
{"Compound": "O=C(CN1CCN(c2cc(=O)n(-c3ccccc3)c3ccccc23)CC1)Nc1nc(-c2ccc(Cl)cc2)cs1", "growth [%]": 61.6}
{"Compound": "Clc1nc2ccccc2nc1-c1nnc(C2CCCCC2)o1", "growth [%]": 91.3}
{"Compound": "COc1ccc(C2c3sc4c(C)cccc4c3Oc3nc(CC(=O)Nc4ccccc4)[nH]c(=O)c32)cc1 (stereo not given)", "growth [%]": 83.7}

* * *

- Test system: LOX IMVI melanoma
- Assay remarks: NCI-60 one-dose screen, 48 h (100 = growth as untreated, 0 = no growth, -100 = all killed)
- Test parameters: 10 µM unless noted
The panel holds about 83,000 compounds, 20% with a hit somewhere; the sample as a whole holds those more often.
Kindly note that classification relies on growth with these boundaries: bin A = under 30%, bin B = from 30% up to 70%, bin C = 70% and over

{"Compound": "Fc1ccc(-c2cc3nc(C(Cl)Cl)nc(-c4ccco4)n3n2)cc1", "Assigned category": "bin C"}
{"Compound": "CCCCCc1ccc(S(=O)(=O)Nc2cccc(-c3csc(NC(=O)CNCCN(C)C)n3)c2)cc1", "Assigned category": "bin B"}
{"Compound": "CCO/C=N/C1=C(C#N)C(c2ccc(F)cc2)c2sc3c(CC)cccc3c2O1 (stereo not given)", "Assigned category": "bin A"}
{"Compound": "Clc1nc2ccccc2nc1-c1nnc(C2CCCCC2)o1", "Assigned category": "bin B"}
{"Compound": "Cc1nn(-c2ccccc2)c2ncnc(N/N=C/c3cccc(O)c3)c12", "Assigned category": "bin A"}
{"Compound": "N#Cc1cccc(CN2CCc3ncn(Cc4ccc(Cl)cc4)c(=O)c3C2)c1", "Assigned category": "bin B"}
{"Compound": "CNC(=O)c1cc(-c2ccc(NS(=O)(=O)c3ccc(C)cc3)cc2)nc2cccnc12", "Assigned category": "bin C"}
{"Compound": "CCCCCc1ccc(S(=O)(=O)Nc2cccc(-c3csc(NC(=O)CCCCCN4CCN(C)CC4)n3)c2)cc1", "Assigned category": "bin A"}
{"Compound": "O=C(CSc1nnc(-c2ccc(Cl)cc2)n1-c1ccccc1)Nc1cccc(Cl)c1", "Assigned category": "bin A"}
{"Compound": "N#Cc1ccccc1Cn1c2nc(=N)c3ccccc3c-2nc2ccccc21", "Assigned category": "bin B"}
{"Compound": "Cc1ccc(C(=O)NN2C(=O)/C(=C/C=C/c3ccco3)SC2=S)cc1", "Assigned category": "bin C"}
{"Compound": "C=CC(=O)N1CC=C(c2cc3c(N[C@H](C)c4ccccc4)ncnc3[nH]2)CC1", "Assigned category": "bin B"}
{"Compound": "Cc1ccc2c(c1)C(=O)/C(=C/c1cccc(F)c1)S2", "Assigned category": "bin C"}
{"Compound": "ClC(Cl)c1nc(-c2ccco2)n2nc(-c3ccccc3)cc2n1", "Assigned category": "bin C"}
{"Compound": "NC(N)=Nc1ccc(Oc2cccc(NC(N)=Nc3ccc(Cl)c(C(F)(F)F)c3)c2)cc1", "Assigned category": "bin A"}
{"Compound": "CCC(CC)N1C(=O)/C(=c2\\sc3n(c2=O)NC2C(N=3)N(CC)C(=O)N2CC)c2ccccc21 (stereo not given)", "Assigned category": "bin B"}
{"Compound": "CCCn1cnc2c(c1=N)C(c1ccc(OC)cc1)c1sc3c(CC)cccc3c1O2 (stereo not given)", "Assigned category": "bin A"}
{"Compound": "COC(=O)c1[nH]nc2c1C1(C(=O)c3cccc4cccc1c34)C(C#N)=C(N)O2 (stereo not given)", "Assigned category": "bin C"}
{"Compound": "COc1ccc([C@H]2[C@H](O)C(=O)N2c2cc(OC)c(OC)c(OC)c2)cc1F", "Assigned category": "bin A"}
{"Compound": "Nc1nc(Nc2ccccc2SSc2ccccc2Nc2nc(N)nc(-c3cccc(Br)c3)n2)nc(-c2cccc(Br)c2)n1", "Assigned category": "bin A"}

* * *

- Tested on: SK-MEL-5 melanoma
- Assay remarks: NCI-60 one-dose screen, 48 h (100 = growth as untreated, 0 = no growth, -100 = all killed)
- Test parameters: 10 µM unless noted
This is part of a sample that, as a whole, favours compounds with a hit. Of some 83,000 tested, about 20% had one in any assay.
Label scheme, based on growth: one (below 10%), two (10% to below 90%), three (90% or more)

{"Compound": "CCc1cccc2c3c(sc12)C(c1ccc(Cl)cc1)C(C#N)=C(/N=C/c1ccc(Cl)cc1)O3 (centres undefined)", "Assigned category": "two"}
{"Compound": "Cc1ccc(NC(=S)NNC(=S)Nc2ccc(C)cc2)cc1", "Assigned category": "three"}
{"Compound": "COc1ccc(-c2cc(-c3ccc(Cl)cc3)c(C#N)c(=O)n2Cc2ccc(C(=O)O)cc2)cc1", "Assigned category": "two"}
{"Compound": "Clc1ccc(N/N=c2/oc3ccccc3cc2-c2cc3ccccc3[nH]2)cc1", "Assigned category": "two"}
{"Compound": "N#Cc1cccc(CN2CCc3ncn(Cc4ccc(Cl)cc4)c(=O)c3C2)c1", "Assigned category": "one"}
{"Compound": "O=S(=O)(Oc1ccc(-c2nnc(Nc3ccccc3)s2)cc1)C(F)(F)C(F)(F)C(F)(F)C(F)(F)C(F)(F)C(F)(F)F", "Assigned category": "three"}
{"Compound": "COC[C@]12CCC(C)(C)C[C@H]1C1=CC[C@@H]3[C@@]4(C)CCCNC(C)(C)[C@@H]4CC[C@@]3(C)[C@]1(C)CC2", "Assigned category": "one"}
{"Compound": "COc1c(N2CC3CCCNC3C2)c(F)cc2c(=O)c(C(=O)N/N=C/c3c[nH]c4ccccc34)cn(C3CC3)c12 (centres undefined)", "Assigned category": "three"}
{"Compound": "CNC(=O)c1c(NC(=O)c2ccccc2C(F)(F)F)sc2c1CCC(=O)C2", "Assigned category": "one"}
{"Compound": "C#Cc1nc(C(=O)NCCC(=O)Nc2ccc(NC(=O)c3ccc(/C=C/C(=O)c4nccn4C)cc3)cc2)cs1", "Assigned category": "two"}
{"Compound": "COc1cc(/C=C2\\C(=O)Nc3cc(Cl)ccc32)ccc1OCc1ccc(F)cc1", "Assigned category": "three"}
{"Compound": "CCN1CCN(Cc2cn(-c3ccc(S(N)(=O)=O)cc3)nn2)CC1", "Assigned category": "three"}
{"Compound": "Cc1cc2ncc(-c3cc4ccccc4c(N4CCN(C)CC4)n3)nc2cc1C", "Assigned category": "two"}
{"Compound": "NC(N)=Nc1ccc(Oc2cccc(NC(N)=Nc3ccc(Cl)c(C(F)(F)F)c3)c2)cc1", "Assigned category": "two"}
{"Compound": "O=C(NNc1nc2cc(F)c(F)cc2n2c(CN3CC4CNCC4C3)ccc12)c1ncccn1 (centres undefined)", "Assigned category": "one"}
{"Compound": "CCCCCc1ccc(S(=O)(=O)Nc2cc(-c3csc(NC(=O)CN4CCN(C)CC4)n3)ccc2OC)cc1", "Assigned category": "one"}
{"Compound": "C=CCn1c(SCC(=O)Nc2ccc(C(=O)/C=C/c3cc(OC)c(OC)c(OC)c3)cc2)nnc1-c1c[nH]c2ccccc12", "Assigned category": "two"}
{"Compound": "CCCCCc1ccc(S(=O)(=O)Nc2cccc(-c3csc(NC(=O)CN4CCN(CCO)CC4)n3)c2)cc1", "Assigned category": "two"}
{"Compound": "CCCC(=O)NC(c1cccnc1)c1cc(C(C)(C)C)c2cccnc2c1O (centres undefined)", "Assigned category": "one"}

* * *

# maps each entry to its growth
- Tested on: A549/ATCC NSCLC
- Assay remarks: NCI-60 one-dose screen, 48 h (100 = growth as untreated, 0 = no growth, -100 = all killed)
- Test parameters: 10 µM unless noted
Compounds without any hit were thinned out: in the full panel of roughly 83,000, 20% have a hit.
Value type: growth (%)

{"Compound": "COc1cc(Nc2c(C#N)cnn3cc(-c4cnn(CC(C)(C)O)c4)cc23)ccc1Cl", "Endpoint unit": "%", "Val": 52.4}
{"Compound": "CNC(=O)c1cc(-c2ccc(NC(=S)Nc3cc(C(F)(F)F)cc(C(F)(F)F)c3)cc2)nc2cccnc12", "Endpoint unit": "%", "Val": 88.3}
{"Compound": "C=CCN(C)S(=O)(=O)/N=C1\\NC(=O)NC1=C(Cl)Cl", "Endpoint unit": "%", "Val": 103}
{"Compound": "Cc1ccc(CSc2nc(-c3ccc(Cl)cc3)c(C#N)c(N3CCOCC3)n2)cc1", "Endpoint unit": "%", "Val": 91.8}
{"Compound": "COc1cc(C2N=C(NNc3ccccc3)NC(C)=C2C(C)=O)ccc1O (stereo not drawn)", "Endpoint unit": "%", "Val": 95.5}
{"Compound": "C#CCNC1CCC(c2csc(C#C)n2)=C1C (stereo not drawn)", "Endpoint unit": "%", "Val": 96.2}
{"Compound": "COc1ccc(Cn2cc3c(c2-c2cc(OC)c(OC)c(OC)c2)CCc2c(CN4CCCC4)noc2-3)cc1", "Endpoint unit": "%", "Val": 25.8}
{"Compound": "O=C1[C@H]2Cc3c([nH]c4ccccc34)[C@@H](c3c(Cl)cccc3Cl)N2C(=O)CN1C1CCN(CC2CCCCC2)CC1", "Endpoint unit": "%", "Val": 94.3}
{"Compound": "Cc1nn(-c2ccccc2)c2ncnc(N/N=C/c3ccccc3)c12", "Endpoint unit": "%", "Val": 92.4}
{"Compound": "Nc1nc(Nc2ccccc2SSc2ccccc2Nc2nc(N)nc(-c3cccc(Br)c3)n2)nc(-c2cccc(Br)c2)n1", "Endpoint unit": "%", "Val": 1.19}
{"Compound": "Cc1ccc(-n2cc(/C=C/C(=O)c3ccc(O)cc3)c(-c3ccc(S(C)(=O)=O)cc3)n2)cc1", "Endpoint unit": "%", "Val": 102}
{"Compound": "N#Cc1cnc2ccc(-c3cnc4[nH]ncc4c3)cc2c1N1CCc2cc(F)c(Cl)cc21", "Endpoint unit": "%", "Val": 9.1}
{"Compound": "COc1ccc(NCc2cn(-c3ccc(C(=O)O)cc3)nc2-c2cc(C(F)(F)F)cc(C(F)(F)F)c2)cc1", "Endpoint unit": "%", "Val": 87.7}
{"Compound": "CCN1CCN(C(=O)[C@]23CCC(C)(C)C[C@H]2C2=CC[C@@H]4[C@@]5(C)Cc6c([nH]c7ccccc67)C(C)(C)[C@@H]5CC[C@@]4(C)[C@]2(C)CC3)CC1", "Endpoint unit": "%", "Val": 59.7}
{"Compound": "COC(=O)c1[nH]nc2c1C1(C(=O)c3cccc4cccc1c34)C(C#N)=C(N)O2 (stereo not drawn)", "Endpoint unit": "%", "Val": 98.2}
{"Compound": "CC(=O)Nc1cccc(Nc2nc(N[C@@H](C)c3ccccc3)c3ccccc3n2)c1", "Endpoint unit": "%", "Val": 19.9}
{"Compound": "O=C(CSc1nnc(-c2ccc(Cl)cc2)n1-c1ccccc1)Nc1cccc(Cl)c1", "Endpoint unit": "%", "Val": 25.7}
{"Compound": "CNCc1cccc2c1OCCCCCCC(C)(O)CC(C)(C)S(=O)(=O)c1ccc(cc1)-c1cnc(N)c(n1)C(=O)N2 (stereo not drawn)", "Endpoint unit": "%", "Val": 11.4}

Origin of measurements: PubChem BioAssay (NCI)
